// provenance: PubChem BioAssay (NCI)

system: OVCAR-4 ovarian; test: NCI tumour cell line growth inhibition, 48 h; in the data active = GI50 below about 0.43 µM; inactive = the rest
Outcome codes: class 1 (active), class 0 (inactive)

| chem smiles | group label |
| --- | --- |
| CC(C)=CCC[C@](C)(O)[C@H]1CC[C@]2(C)[C@@H]1CC[C@@H]1[C@@]3(C)CC/C(=N/O)C(C)(C)[C@@H]3CC[C@]12C | class 0 |
| CC(C)=CCC/C(C)=C/CC/C(C)=C/CSc1ccccc1C(=O)O | class 0 |
| N=c1ccn(O)cc1/C=C1/C(=O)Nc2ccccc21 | class 0 |
| NCCOCCOCCNc1nc(-c2ccccc2)nc(N2CCN(c3ccccn3)CC2)n1 | class 0 |
| CS(=O)(=O)CCc1cccc(C(=O)c2cnn(-c3ccc(F)cc3)c2N)c1 | class 0 |
| COc1cc(NCCCN=C(N)NC(N)=NC(C)C)c2ncccc2c1 | class 1 |
| CNC(=O)c1ccccc1Nc1nc(Nc2cc(OC)c(OC)c(OC)c2)ncc1Br | class 1 |
| CCN(CC)CCCNCc1cc(-c2ccccc2)nc2ccccc12 | class 0 |
| O=C(COc1cc(O)c2c(=O)cc(-c3ccccc3)oc2c1)Nc1ccccc1C(F)(F)F | class 0 |
| Cc1nc2ccccc2c(/C=C/c2ccc(Cl)cc2)c1C(=O)/C=C/c1ccc(C(F)(F)F)cc1 | class 0 |

* * *

tested on: K-562 leukemia; assay: NCI tumour cell line growth inhibition, 48 h
reported metric: TGI (µM)

| molecule | bound sign | measured |
| --- | --- | --- |
| CCC[CH2][Sn]1([CH2]CCC)[O]CC(CN(C)Cc2ccccc2)[O]1 (stereo unspecified) | = | 12.9 |
| NC(=O)Cc1nc2c(N)ncnc2n1C1OC(CO)C(O)C1O (stereo unspecified) | > | 100 |
| CCC/C(=N\NC(=S)N1CC2CCC(CC2)C1)c1ccccn1 | = | 1.23 |
| CC1=C(c2ccccc2)NC(=S)C(C)C(c2ccccc2)=N1 (stereo unspecified) | = | 28.6 |
| CC1SCc2nc3ccccc3n21 (stereo unspecified) | > | 100 |
| Cc1csc(/C=C/C(=O)c2nnn(-c3ccnc4c(C(F)(F)F)cccc34)c2C)c1 | > | 100 |
| COC(=O)C(C(=O)OC)C1CCCC(=O)C1 (stereo unspecified) | > | 100 |
| Cc1ccc(NC(=O)CC2Sc3ccccc3NC2=O)c(C)c1 (stereo unspecified) | = | 19 |
| CC(=O)OCC1OC(Nn2c(=O)[nH]c3ccccc3c2=O)C(OC(C)=O)C(OC(C)=O)C1OC(C)=O (stereo unspecified) | > | 100 |
| O=C(CCN1CCN(c2ccccc2)CC1)N1CCc2c([nH]c3ccccc23)C1c1cccnc1 (stereo unspecified) | = | 45 |
| Cc1cccc2c1c(=O)c1c(O)c3c(cc1n2C)OC(C)(C)C=C3 | > | 10 |

* * *

tested on: SK-MEL-5 melanoma; assay: NCI tumour cell line growth inhibition, 48 h

| compound | TGI |
| --- | --- |
| CCN(CC)CCCNCc1cc(-c2ccccc2)nc2ccccc12 | 18.7 µM |
| CC(=O)OCC1OC(n2c(-c3ccccc3)c(C(C)=O)c(-c3cccc4ccccc34)c(C#N)c2=S)C(OC(C)=O)C(OC(C)=O)C1OC(C)=O (stereo not drawn) | > 100 µM |
| COc1cc(NCCCN=C(N)NC(N)=NC(C)C)c2ncccc2c1 | 6.38 µM |
| CCOC(=O)N1CCC(=O)C(CNC23CC4CC(CC(C4)C2)C3)C1 (stereo not drawn) | > 100 µM |
| COC(=O)C1(C#N)C(C)(C)N=C(c2ccccc2)C12CCCCC2 (stereo not drawn) | > 100 µM |
| Cn1c(=O)c2c(nc3n2CCCC(=O)N3CC(O)CCl)n(C)c1=O (stereo not drawn) | > 100 µM |
| CC(C)O/N=C/c1cc(NC(=S)OC(C)C)ccc1Cl | > 73.4 µM |
| O=C1CSC(c2ccccc2[N+](=O)[O-])N1c1ccc(-c2ccc(-n3c(-c4ccccc4)nc4ccccc4c3=O)cc2)cc1 (stereo not drawn) | > 100 µM |
